system: hCF; experiment: ER integrity in 2D monoculture; conditions: Homo sapiens, 24 h, read-out: ER integrity IC50
pIC50: −log10 of the molar value. Structures can show the parent of a compound that is named as a salt.
reported_metric: pIC50

### Prompt Quick check: pIC50 of COc1cccc2c1C(=O)c1c(O)c3c(c(O)c1C2=O)C[C@@](O)(C(=O)CO)C[C@@H]3O[C@H]1C[C@H](N)[C@H](O)[C@H](C)O1 [Doxorubicin HCl] ?
### Response 5.19

1. CCN(CC)CCNC(=O)c1c(C)[nH]c(/C=C2\C(=O)Nc3ccc(F)cc32)c1C [Sunitinib Malate]
2. CS(=O)(=O)CCNCc1ccc(-c2ccc3ncnc(Nc4ccc(OCc5cccc(F)c5)c(Cl)c4)c3c2)o1
### Prompt In the pair 1 and 2 , the larger recorded pIC50 belongs to which? Mark your answer with the label of the selected entry.
### Response 1

Source listed as paper PMC6033897.
